# credit: PubChem BioAssay AID1963969

Some molecules, each annotated with its measured viability, T/C.
System: 817829-284-R-J1-PDC multi-cell spheroid viability;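 note: spheroids exposed to agents for seven days before readout; percent of vehicle DMSO control viability which is 100%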
assay method text: Anticancer human tumor 817829-284-R-J1-PDC patient-derived colon adenocarcinoma cell line growth inhibition [PI3K]
condition context: second compound 1 µM; first compound 0.0316 µM; active compounds read low
Hi! Could you send only the number? It should be in %, unit omitted.

Consider the following illustrative entries.
| molecule | system name | viability, T/C, % |
| --- | --- | --- |
| CC(Cn1ccc(-c2ccc(C#N)c(Cl)c2)n1)NC(=O)c1cc(C(C)O)[nH]n1 (stereo not drawn) + COc1c(OCCCN2CCOCC2)ccc2c3n(c(=NC(=O)c4cnc(N)nc4)nc12)CCN3 | 817829-284-R-J1-PDC multi-cell spheroid viability | 12.9 |
| CC1(C)CCC(Nc2ncc(C(F)(F)F)c(-c3c[nH]c4c(P(C)(C)=O)c(C#N)ccc34)n2)CN1 (stereo not drawn) + Cc1nc(NC(=O)N2CCCC2C(N)=O)sc1-c1ccnc(C(C)(C)C(F)(F)F)c1 | 817829-284-R-J1-PDC multi-cell spheroid viability | 26.6 |

Attention now turns to another entry.
The recorded viability, T/C for CNC(=O)c1ccc(N2C(=S)N(c3ccc(C#N)c(C(F)(F)F)c3)C(=O)C2(C)C)cc1F + Cc1nc(NC(=O)N2CCCC2C(N)=O)sc1-c1ccnc(C(C)(C)C(F)(F)F)c1 is 60
